The reported measurements were obtained from patent US8609644B2.

tested on: anesthetized guinea-pig; experiment: Inotropic effect and lethal dose, slow intravenous infusion (over 90 minutes) in anesthetized guinea-pig; details: maximum dose infused in the survived animals
Counter-ions that a name gives are not always drawn.
Listed here are molecules together with their documented Maximum dose infused.
Report the figure in µmol/kg without appending any unit label.

Examples with their reported Maximum dose infused follow.
Molecule	Maximum dose infused (µmol/kg)
C[C@]12CC[C@@H](/C=C\CCCN)CC1/C(=N/O)C[C@@H]1[C@@H]2CC[C@]2(C)C(=O)CC[C@@H]12.O=C(O)/C=C/C(=O)O (some centres unmarked) [I-dg]	12.9
C[C@]12CC[C@H]3[C@@H](C/C(=N\O)[C@@]4(O)CC(=NOCCN)CC[C@]34C)[C@@H]1CCC2=O.O=C(O)/C=C/C(=O)O [I-bo]	12.5

Could you tell me which Maximum dose infused is on file for C#C[C@H]1C[C@@H]2[C@H](CC[C@]3(C)C(=O)CC[C@@H]23)[C@@]2(C)CCC(=NOCCN)C[C@H]12 (mixture of isomers) [I-bd, hydrochloride] ?
12.8

Find the recorded Maximum dose infused belonging to C[C@H]1O[C@@H](O[C@H]2[C@@H](O)C[C@H](O[C@H]3[C@@H](O)C[C@H](O[C@H]4CC[C@@]5(C)[C@H](CC[C@@H]6[C@@H]5C[C@@H](O)[C@]5(C)[C@@H](C7=CC(=O)OC7)CC[C@]65O)C4)O[C@@H]3C)O[C@@H]2C)C[C@H](O)[C@@H]1O [digoxin, reference compound] and report it.
1.16

// query Maximum dose infused value for entry C=C1C[C@H]2[C@@H]3CCC(=O)[C@@]3(C)CC[C@@H]2[C@@]2(C)CCC(=NOCCN)C[C@]12O (mixture of isomers) [I-bq, hydrochloride]
25.3

Which Maximum dose infused value belongs to C[C@]12CCC(=NOCCN)CC1[C@@H](NC=O)C[C@@H]1[C@@H]2CC[C@]2(C)C(=O)CC[C@@H]12.O=C(O)/C=C/C(=O)O (some centres unmarked) [I-be] ?
50.4

Quick check: Maximum dose infused of CNCCCON=C1CCC2(C)C(C1)C(NC=O)CC1C3CCC(=O)C3(C)CCC12 (mixture of isomers) [I-co, hydrochloride] ?
44.1

###

tested on: anesthetized guinea-pig; assay: Inotropic effect and lethal dose, slow intravenous infusion (over 90 minutes) in anesthetized guinea-pig; details: slow i.v. infusion over 90 minutes
Counter-ions that a name gives are not always drawn.
Experimental readout: Dead/treated

These recorded examples may help you get a feel for the data.
Compound	Result
C[C@]12CCC(=NOCCN)CC1C(=O)C[C@@H]1[C@@H]2CC[C@]2(C)C(=O)CC[C@@H]12.Cl (mixture of isomers) [compd 22b, reference compound]	7/8
CNCCCON=C1CC[C@@]2(C)[C@H](C1)[C@@H](CO)C[C@@H]1[C@@H]2CC[C@]2(C)C(=O)CC[C@@H]12 (mixture of isomers) [I-cl, hydrochloride]	2/2
C[C@]12CC[C@H]3[C@@H](CC[C@@]4(O)CC(=NOCCN)CC[C@]34C)[C@@H]1CCC2=O (mixture of isomers) [I-ad]	0/3

Please turn your attention to the following entry.
Dead/treated of CC12CCC3C(CC(CCO)C4CC(=NOCCN)CCC43C)C1CCC2=O (mixture of isomers) [I-am, hydrochloride] on anesthetized guinea-pig?
2/3

###

system: fresh rat hepatocytes; assay: Metabolism in fresh rat hepatocytes; conditions: fresh rat hepatocytes; test item nominal concentration 45 μM
Experimental readout: % of compound metabolized after 60 minutes (%)
The figure you give is taken to be in %; do not add the unit.

Compound	Readout number
CO/N=C1\C[C@H]2[C@@H]3CCC(=O)[C@@]3(C)CC[C@@H]2[C@@]2(C)CCC(=NOCCN)C[C@]12O (mixture of isomers) [I-bp]	32

Any idea what its % of compound metabolized after 60 minutes is? The compound is C[C@]12CCC(=NOCCN)CC1[C@@H](NC=O)C[C@@H]1[C@@H]2CC[C@]2(C)C(=O)CC[C@@H]12.O=C(O)/C=C/C(=O)O (stereo partly drawn) [I-be]
16

Any idea what its % of compound metabolized after 60 minutes is? The compound is C[C@]12CC[C@H]3[C@@H](CC[C@@]4(O)C[C@H](/C=C\CCCN)CC[C@]34C)[C@@H]1CCC2=O [I-dk]
12
